Provenance of the data: the supplement of paper PMC6757056

B1: library; a variant is named by its letters at N, in order (parent)
chain: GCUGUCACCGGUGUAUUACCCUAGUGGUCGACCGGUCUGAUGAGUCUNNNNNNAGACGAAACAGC

variants of: B1; experiment: normalized RNA/DNA level without ligand (relative to sTRSVctl = 100) (log10 (% of sTRSVctl)); ligand: hypoxanthine (xanthine aptamer); higher = less ribozyme self-cleavage, higher mRNA level; conditions: HEK293T, reporter: mCherry (pCS4076), ligand present: no
ENDPOINT NAME: normalized RNA/DNA level without ligand (log10)
Numbers only.

Use the examples below as a reference point.
MUT	REPORTED
CACCUU	1.87
GGGCUG	1.78
AGUCUA	1.84
AACGUA	1.7
CAAUGG	1.42
AACCCC	1.87
CAGAUU	1.77
UAGUAU	1.76
ACCCGC	1.82
ACACCG	1.55

For every item below, please supply its normalized RNA/DNA level without ligand (log10).
1. AACAGG
2. GAAGGA
3. AAUCAA

1.29
1.64
1.75

For every item below, please supply its normalized RNA/DNA level without ligand (log10).
1. GACCGC
2. GACGGA
3. AUUCGC
4. UACUCG
5. GCAGCA

1: 1.76; 2: 1.68; 3: 1.89; 4: 1.72; 5: 1.83

For every item below, please supply its normalized RNA/DNA level without ligand (log10).
1. UCCGAG
2. UCAACU
3. UCUGCC
4. GGCUAA
5. AAGGCC

1.38
1.88
1.89
1.86
1.91

For every item below, please supply its normalized RNA/DNA level without ligand (log10).
1. GACUAC
2. UGCCGU
3. AAGCAA

[1.8, 1.74, 1.61]

For every item below, please supply its normalized RNA/DNA level without ligand (log10).
1. CUCGGG
2. CUGUUG

[1.66, 1.87]

For every item below, please supply its normalized RNA/DNA level without ligand (log10).
1. CUCCAA
2. CUAUGC

[1.87, 1.88]

For every item below, please supply its normalized RNA/DNA level without ligand (log10).
1. UAACAG
2. CAACAG
3. GACCUA
4. GGGGAU
5. AGUUCA
6. AACUAU
7. GUAGGG
8. UUAAUC

1: 1.56; 2: 1.72; 3: 1.85; 4: 1.75; 5: 1.8; 6: 1.79; 7: 1.49; 8: 1.96

For every item below, please supply its normalized RNA/DNA level without ligand (log10).
1. GUCAAC
2. AGGGCU
3. CUGGAU
4. ACUGCC

1.75
1.87
1.75
1.89
